# assaySystem: EGFR Del19/T790M/C797S (Homo sapiens, UniProt P00533, C797S/DEL746-750/T790M)
# Sequence (P00533 with tags, fused parts or gaps DEL746-750/T790M/C797S): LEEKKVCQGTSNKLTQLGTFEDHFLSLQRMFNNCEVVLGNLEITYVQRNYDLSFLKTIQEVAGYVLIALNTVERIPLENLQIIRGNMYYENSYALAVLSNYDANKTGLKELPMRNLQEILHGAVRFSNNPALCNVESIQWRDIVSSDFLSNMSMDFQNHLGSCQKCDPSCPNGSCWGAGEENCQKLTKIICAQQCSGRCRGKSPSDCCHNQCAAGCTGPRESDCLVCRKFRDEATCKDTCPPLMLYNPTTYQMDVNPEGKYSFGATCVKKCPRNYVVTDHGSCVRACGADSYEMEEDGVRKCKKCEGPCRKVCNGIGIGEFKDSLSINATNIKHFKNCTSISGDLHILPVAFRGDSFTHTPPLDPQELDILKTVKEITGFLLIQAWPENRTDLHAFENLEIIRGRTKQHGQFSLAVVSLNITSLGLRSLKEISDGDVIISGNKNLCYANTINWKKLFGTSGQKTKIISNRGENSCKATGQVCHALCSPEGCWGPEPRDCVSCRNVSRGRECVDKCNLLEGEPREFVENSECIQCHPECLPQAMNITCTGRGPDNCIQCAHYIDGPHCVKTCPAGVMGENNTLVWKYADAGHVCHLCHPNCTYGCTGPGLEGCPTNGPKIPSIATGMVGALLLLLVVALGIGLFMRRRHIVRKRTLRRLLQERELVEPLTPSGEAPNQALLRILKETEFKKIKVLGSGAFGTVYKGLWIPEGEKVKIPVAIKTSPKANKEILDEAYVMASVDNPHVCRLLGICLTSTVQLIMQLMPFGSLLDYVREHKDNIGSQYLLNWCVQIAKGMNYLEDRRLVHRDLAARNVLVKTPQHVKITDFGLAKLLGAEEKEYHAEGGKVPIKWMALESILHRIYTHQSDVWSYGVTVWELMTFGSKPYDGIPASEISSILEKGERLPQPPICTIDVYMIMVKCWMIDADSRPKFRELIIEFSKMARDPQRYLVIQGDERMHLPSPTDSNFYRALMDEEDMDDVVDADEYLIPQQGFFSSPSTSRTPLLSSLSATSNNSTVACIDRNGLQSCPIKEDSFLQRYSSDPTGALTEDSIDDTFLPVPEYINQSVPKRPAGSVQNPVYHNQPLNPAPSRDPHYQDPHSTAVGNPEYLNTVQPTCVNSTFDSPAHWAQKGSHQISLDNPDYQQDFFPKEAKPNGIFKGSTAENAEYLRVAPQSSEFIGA
# assayOverview: Biochemical EGFR kinase inhibition assay (Lance Ultra TR-FRET), triple mutant del19/T790M/C797S
# conditionDetails: read-out: IC50 Del19/T790M/C797S (nM), 100 μM ATP
Please assign no whenever IC50 is at or above 2 nM, and yes whenever it is below.

Check out these entries, answers already filled in.
Data request: Confirm or reject: IC50 of C[C@]1(O)CC[C@@H](Nc2cc(Nc3ccnc(-c4cnn(S(=O)(=O)C5CC5)c4)n3)ncc2C#Cc2ccc(CN3CCOCC3)cc2)CC1 lies strictly below 2 nM
Data returned: no

Data request: Does the reported IC50 of the following compound sit strictly below 2 nM? C[C@]1(O)CC[C@@H](Nc2cc(Nc3ccnc(-c4cnn(S(=O)(=O)C5CC5)c4)n3)ncc2C#CCN2CCOCC2)CC1
Data returned: yes

Data request: Lab log: compare recorded IC50 with 2 nM; is it strictly lower for Cn1cnc(C#Cc2cnc(Nc3ccnc(-c4cnn(S(=O)(=O)C5CC5)c4)n3)cc2N[C@H]2CC[C@@H](O)CC2)c1 ?
Data returned: yes

More entries:
Data request: Say whether its IC50 is strictly beneath 2 nM. Entry: O=S(=O)(C1CC1)n1cc(-c2nccc(Nc3cc(N[C@H]4CC[C@@H](O)CC4)c(C#Cc4ccc(NCCN5CCOCC5)cc4)cn3)n2)cn1
Data returned: no

Data request: Quick check: IC50 of O=S(=O)(C1CC1)n1cc(-c2nccc(Nc3cc(N[C@H]4CC[C@@H](O)CC4)c(C#Cc4cccc(NCCN5CCOCC5)c4)cn3)n2)cn1 under 2 nM?
Data returned: no
